system: S. epidermidis (ATCC 12228); test: Zone of inhibition screen, 96 well agar array format; type: cell-based; design: scale not given here; conditions: zone of inhibition relative to 1 mg/ml p-chlorobiphenylvancomycin
Measured Metric: zone score, S. epidermidis ATCC 12228
Give bare numbers.

Compound	System Name	Reported Value
COc1ccc(CCC(=O)NC2C(=O)NC(CC(N)=O)C(=O)NC3C(=O)NC4C(=O)NC(C(=O)NC(C(=O)O)c5cc(O)cc(O)c5-c5cc4ccc5O)C(O)c4ccc(c(Cl)c4)Oc4cc3cc(c4OC3OC(CO)C(O)C(O)C3OC3CC(C)(NCc4ccc(-c5ccc(Cl)cc5)cc4)C(O)C(C)O3)Oc3ccc(cc3Cl)C2O)cc1OC (centres unmarked) [Compound 245]	S. epidermidis (ATCC 12228)	2

The record that follows has no zone score, S. epidermidis ATCC 12228 shown yet.
Need zone score, S. epidermidis ATCC 12228, item CSCCC(NC=O)C(=O)NC1C(=O)NC(CC(N)=O)C(=O)NC2C(=O)NC3C(=O)NC(C(=O)NC(C(=O)O)c4cc(O)cc(O)c4-c4cc3ccc4O)C(O)c3ccc(c(Cl)c3)Oc3cc2cc(c3OC2OC(CO)C(O)C(O)C2OC2CC(C)(NCc3ccc(-c4ccc(Cl)cc4)cc3)C(O)C(C)O2)Oc2ccc(cc2Cl)C1O (mixture of isomers) [Compound 326]
2

----------
tested on: E. faecalis (CL 4877); experiment: Zone of inhibition screen, 96 well agar array format; format: cell-based; design: scale not given here; settings: zone of inhibition relative to 1 mg/ml stock solution of p-chlorobiphenylvancomycin
Measured Metric: zone score, E. faecalis CL 4877
Give bare numbers.

Compound	Reported Value
CC1OC(OC2C(Oc3c4cc5cc3Oc3ccc(cc3Cl)[C@@H](O)[C@@H](NC(=O)CNC(=O)CNC(=O)CNC(=O)c3ccccc3)C(=O)N[C@@H](CC(N)=O)C(=O)N[C@H]5C(=O)NC3C(=O)N[C@H](C(=O)N[C@@H](C(=O)O)c5cc(O)cc(O)c5-c5cc3ccc5O)[C@H](O)c3ccc(c(Cl)c3)O4)OC(CO)C(O)C2O)CC(C)(NCc2ccc(-c3ccc(Cl)cc3)cc2)C1O (stereo partly drawn) [Compound 161]	2
CC1OC(OC2C(Oc3c4cc5cc3Oc3ccc(cc3Cl)C(O)C3NC(=O)C(NC(=O)C5NC(=O)C(CC(N)=O)NC(=O)C(NC(=O)CCN)C(O)c5ccc(c(Cl)c5)O4)c4ccc(O)c(c4)-c4c(O)cc(O)cc4C(C(=O)O)NC3=O)OC(CO)C(O)C2O)CC(C)(NCc2ccc(-c3ccc(Cl)cc3)cc2)C1O (stereo not drawn) [Compound 47]	2
CC(O)C(N)C(=O)NC1C(=O)NC(CC(N)=O)C(=O)NC2C(=O)NC3C(=O)NC(C(=O)NC(C(=O)O)c4cc(O)cc(O)c4-c4cc3ccc4O)C(O)c3ccc(c(Cl)c3)Oc3cc2cc(c3OC2OC(CO)C(O)C(O)C2OC2CC(C)(NCc3ccc(-c4ccc(Cl)cc4)cc3)C(O)C(C)O2)Oc2ccc(cc2Cl)C1O (stereo not drawn) [Compound 89]	2
CC(N)C(=O)NC(C)C(=O)NC1C(=O)NC(CC(N)=O)C(=O)NC2C(=O)NC3C(=O)NC(C(=O)NC(C(=O)O)c4cc(O)cc(O)c4-c4cc3ccc4O)C(O)c3ccc(c(Cl)c3)Oc3cc2cc(c3OC2OC(CO)C(O)C(O)C2OC2CC(C)(NCc3ccc(-c4ccc(Cl)cc4)cc3)C(O)C(C)O2)Oc2ccc(cc2Cl)C1O (stereo not drawn) [Compound 35]	2
CC1OC(OC2C(Oc3c4cc5cc3Oc3ccc(cc3Cl)C(O)C(NC(=O)C3CCC(O)N3C(=O)C3CCCN3C(=O)CN)C(=O)NC(CC(N)=O)C(=O)NC5C(=O)NC3C(=O)NC(C(=O)NC(C(=O)O)c5cc(O)cc(O)c5-c5cc3ccc5O)C(O)c3ccc(c(Cl)c3)O4)OC(CO)C(O)C2O)CC(C)(NCc2ccc(-c3ccc(Cl)cc3)cc2)C1O (stereo not drawn) [Compound 69]	2

The record that follows has no zone score, E. faecalis CL 4877 shown yet.
Need zone score, E. faecalis CL 4877, item CSCC(N)C(=O)NC1C(=O)NC(CC(N)=O)C(=O)NC2C(=O)NC3C(=O)NC(C(=O)NC(C(=O)O)c4cc(O)cc(O)c4-c4cc3ccc4O)C(O)c3ccc(c(Cl)c3)Oc3cc2cc(c3OC2OC(CO)C(O)C(O)C2OC2CC(C)(NCc3ccc(-c4ccc(Cl)cc4)cc3)C(O)C(C)O2)Oc2ccc(cc2Cl)C1O (stereo not drawn) [Compound 50]
2

----------
Exercise: for every item that follows, state its recorded MIC E. faecium CL 4931.
test system: E. faecium CL 4931; assay: MIC determination in BHI media, OD600; type: cell-based; conditions: BHI + 0.1% casamino acids, 18 hours at 37° C., ≧90% OD600 inhibition

Molecule	MIC E. faecium CL 4931
CC1OC(OC2C(Oc3c4cc5cc3Oc3ccc(cc3Cl)C(O)C3NC(=O)C(NC(=O)C5NC(=O)C(CC(N)=O)NC(=O)C(NC(=O)C(N)CSSC(C)(C)C)C(O)c5ccc(c(Cl)c5)O4)c4ccc(O)c(c4)-c4c(O)cc(O)cc4C(C(=O)O)NC3=O)OC(CO)C(O)C2O)CC(C)(NCc2ccc(-c3ccc(Cl)cc3)cc2)C1O (stereo not shown)	25 µg/mL
CC1OC(OC2C(Oc3c4cc5cc3Oc3ccc(cc3Cl)C(O)C3NC(=O)C(NC(=O)C5NC(=O)C(CC(N)=O)NC(=O)C(NC(=O)C(N)CO)C(O)c5ccc(c(Cl)c5)O4)c4ccc(O)c(c4)-c4c(O)cc(O)cc4C(C(=O)O)NC3=O)OC(CO)C(O)C2O)CC(C)(NCc2ccc(-c3ccc(Cl)cc3)cc2)C1O (stereo not shown)	25 µg/mL
C[C@H]1O[C@H](O[C@H]2[C@H](Oc3c4cc5cc3Oc3ccc(cc3Cl)[C@@H](O)[C@@H](NC(=O)[C@@H](N)CCC(=O)OCc3ccccc3)C(=O)N[C@@H](CC(N)=O)C(=O)N[C@H]5C(=O)N[C@H]3C(=O)N[C@H](C(=O)N[C@@H](C(=O)O)c5cc(O)cc(O)c5-c5cc3ccc5O)[C@H](O)c3ccc(c(Cl)c3)O4)O[C@H](CO)[C@@H](O)[C@@H]2O)C[C@@](C)(NCc2ccc(-c3ccc(Cl)cc3)cc2)[C@H]1O	> 25 µg/mL
CC1OC(OC2C(Oc3c4cc5cc3Oc3ccc(cc3Cl)C(O)C3NC(=O)C(NC(=O)C5NC(=O)C(CC(N)=O)NC(=O)C(NC(=O)C(N)Cc5ccc(O)c([N+](=O)[O-])c5)C(O)c5ccc(c(Cl)c5)O4)c4ccc(O)c(c4)-c4c(O)cc(O)cc4C(C(=O)O)NC3=O)OC(CO)C(O)C2O)CC(C)(NCc2ccc(-c3ccc(Cl)cc3)cc2)C1O (stereo not shown)	25 µg/mL
CC1OC(OC2C(Oc3c4cc5cc3Oc3ccc(cc3Cl)C(O)C3NC(=O)C(NC(=O)C5NC(=O)C(CC(N)=O)NC(=O)C(NC(=O)C(N)CCCCNC(=O)CCCCC5SCC6NC(=O)NC65)C(O)c5ccc(c(Cl)c5)O4)c4ccc(O)c(c4)-c4c(O)cc(O)cc4C(C(=O)O)NC3=O)OC(CO)C(O)C2O)CC(C)(NCc2ccc(-c3ccc(Cl)cc3)cc2)C1O (stereo not shown)	25 µg/mL

Could you report MIC E. faecium CL 4931 for every entry in the following list?
1. CN[C@H](CC(C)C)C(=O)N[C@H]1C(=O)N[C@@H](CC(N)=O)C(=O)N[C@H]2C(=O)N[C@H]3C(=O)N[C@H](C(=O)N[C@H](C(=O)O)c4cc(O)cc(O)c4-c4cc3ccc4O)[C@H](O)c3ccc(c(Cl)c3)Oc3cc2cc(c3O[C@@H]2O[C@H](CO)[C@@H](O)[C@H](O)[C@H]2O[C@H]2C[C@](C)(N)[C@H](O)[C@H](C)O2)Oc2ccc(cc2Cl)[C@H]1O [Compound 0, Vancomycin, reference compound]
2. CN[C@H](CC(C)C)C(=O)N[C@H]1C(=O)N[C@@H](CC(N)=O)C(=O)N[C@H]2C(=O)N[C@H]3C(=O)N[C@H](C(=O)N[C@@H](C(=O)O)c4cc(O)cc(O)c4-c4cc3ccc4O)[C@H](O)c3ccc(c(Cl)c3)Oc3cc2cc(c3O[C@@H]2O[C@H](CI)[C@@H](O)[C@H](O)[C@H]2O[C@@H]2C[C@@](C)(NCc3ccc(-c4ccc(Cl)cc4)cc3)[C@@H](O)[C@@H](C)O2)Oc2ccc(cc2Cl)[C@H]1O

> 250 µg/mL
> 25 µg/mL

----------
tested on: E. Faecalis CL 4877; assay: MIC determination in BHI media, OD600; assay type: cell-based; details: BHI + 0.1% casamino acids, 18 hours at 37° C., ≧90% OD600 inhibition
Measured Metric: MIC E. faecalis CL 4877

Field: example entries. Status: answers known.
Compound	Reported Value
CN[C@H](CC(C)C)C(=O)N[C@H]1C(=O)N[C@@H](CC(N)=O)C(=O)N[C@H]2C(=O)N[C@H]3C(=O)N[C@H](C(=O)N[C@H](C(=O)O)c4cc(O)cc(O)c4-c4cc3ccc4O)[C@H](O)c3ccc(c(Cl)c3)Oc3cc2cc(c3O[C@@H]2O[C@H](CO)[C@@H](O)[C@H](O)[C@H]2O[C@H]2C[C@](C)(N)[C@H](O)[C@H](C)O2)Oc2ccc(cc2Cl)[C@H]1O [Compound 0, Vancomycin, reference compound]	> 250 µg/mL
CC1OC(OC2C(Oc3c4cc5cc3Oc3ccc(cc3Cl)C(O)C3NC(=O)C(NC(=O)C5NC(=O)C(CC(N)=O)NC(=O)C(NC(=O)CNC(=O)CNC(=O)c5ccc([N+](=O)[O-])cc5)C(O)c5ccc(c(Cl)c5)O4)c4ccc(O)c(c4)-c4c(O)cc(O)cc4C(C(=O)O)NC3=O)OC(CO)C(O)C2O)CC(C)(NCc2ccc(-c3ccc(Cl)cc3)cc2)C1O (stereo not drawn) [Compound 108]	> 25 µg/mL

Need MIC E. faecalis CL 4877, item CN[C@H](CC(C)C)C(=O)N[C@H]1C(=O)N[C@@H](CC(N)=O)C(=O)N[C@H]2C(=O)N[C@H]3C(=O)N[C@H](C(=O)N[C@@H](C(=O)O)c4cc(O)cc(O)c4-c4cc3ccc4O)[C@H](O)c3ccc(c(Cl)c3)Oc3cc2cc(c3O[C@@H]2O[C@H](CI)[C@@H](O)[C@H](O)[C@H]2O[C@@H]2C[C@@](C)(NCc3ccc(-c4ccc(Cl)cc4)cc3)[C@@H](O)[C@@H](C)O2)Oc2ccc(cc2Cl)[C@H]1O [Compound 519]
> 25 µg/mL
